Max MFI reference
experimental-system: T1, human GPC3 on CHO-K1-human GPC3 cells (CHOK1-hGPC3.2B5) (human, UniProt P51654 25-554)
T1 construct: whole, on cells
measurement-notes: FACS, CHOK1-hGPC3.2B5 cells;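 also: flow cytometry of humanized antibodies binding to the cells over one hour in the cold, read as cell mean fluorescence intensity, with EC50 obtained by curve fitting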
reported-metric: Max MFI (MFI)

binder | measurement-units | reported-result
hAb006LH1L1 (antibody, human IgG1, V domains shown, Humanized F3.38.7; VH H1 + VL L1; expressed as human IgG1) VH: EVQLVQSGAEVKKPGSSVKVSCKASGYTFSDYEIHWVRQAPGQGLEWMGAIDPKTGNTAYNQKFMGRVTITADKSTSTAYMELSSLRSEDTAVYYCTRYFSFAYWGQGTLVTVSS VL: DIVMTQTPLSLPVTPGEPASISCRSSQTFVHSNGNTYLQWYLQKPGQSPQLLIYKVSNRFSGVPDRFSGSGSGTDFTLKISRVEAEDVGVYYCFQGSHVPYTFGQGTKLEIK | MFI | 4780
hAb003LH2L1 (antibody, human IgG1, V domains shown, Humanized F2.154.1; VH H2 + VL L1; expressed as human IgG1) VH: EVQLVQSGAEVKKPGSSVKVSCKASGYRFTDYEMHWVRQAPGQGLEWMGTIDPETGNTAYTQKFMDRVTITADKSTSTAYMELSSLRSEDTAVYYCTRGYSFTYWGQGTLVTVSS VL: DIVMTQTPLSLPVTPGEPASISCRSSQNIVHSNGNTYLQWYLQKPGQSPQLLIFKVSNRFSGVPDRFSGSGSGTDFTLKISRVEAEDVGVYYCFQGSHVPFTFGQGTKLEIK | MFI | 5140
hAb007LH1L1 (antibody, human IgG1, V domains shown, Humanized F3.81.19; VH H1 + VL L1; expressed as human IgG1) VH: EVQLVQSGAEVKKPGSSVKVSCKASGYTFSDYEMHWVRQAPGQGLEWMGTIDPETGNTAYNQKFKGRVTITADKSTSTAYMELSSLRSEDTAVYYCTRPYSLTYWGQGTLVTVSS VL: DIVMTQTPLSLPVTPGEPASISCRSSQSFVHSNGDTYLQWYLQKPGQSPQLLIYKVSNRFSGVPDRFSGSGSGTDFTLKISRVEAEDVGVYYCFQGSHVPYTFGQGTKLEIK | MFI | 6440
hAb007LH2L1 (antibody, human IgG1, V domains shown, Humanized F3.81.19; VH H2 + VL L1; expressed as human IgG1) VH: EVQLVQSGAEVKKPGSSVKVSCKASGYTFTDYEMHWVRQAPGQGLEWMGTIDPETGNTAYNQKFKGRVTITADKSTSTAYMELSSLRSEDTAVYYCTRPYSLTYWGQGTLVTVSS VL: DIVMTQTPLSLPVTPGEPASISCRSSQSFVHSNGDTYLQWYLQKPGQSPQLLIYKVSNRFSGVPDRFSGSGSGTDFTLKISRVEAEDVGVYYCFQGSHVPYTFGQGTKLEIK | MFI | 6190
hAb005LH1L1 (antibody, human IgG1, V domains shown, Humanized F3.54.12; VH H1 + VL L1; expressed as human IgG1) VH: EVQLVQSGAEVKKPGASVKVSCKASGYTFTDYEMHWVRQAPGQGLEWMGAIDPETGNTAYIQKFKGRVTMTTDKSTSTAYMELRSLRSDDTAVYYCTRFYSYSHWGQGTTVTVSS VL: DIVMTQTPLSLPVTPGEPASISCRSSQSLVHSNGNTYLHWYLQKPGQSPQLLIYKVSNRFSGVPDRFSGSGSGTDFTLKISRVEAEDVGVYYCSQNTHVPPTFGGGTKVEIK | MFI | 4500
